biological target: DOR-eGFP (delta opioid receptor-eGFP) (Mus musculus); construct: gene Oprd1; Full-length mouse delta receptor with C-terminal eGFP, knocked in at the native gene (exon 3, 5' of the stop codon); whole brain membranes of knock-in mice; assay: [3H]naltrindole competition binding, whole brain membranes; conditions: 1 nM [3H]naltrindole, 1 h, 25 °C; read-out: Affinity (Competition Binding) / Ki (nM) / Concentration
Measurement Type: Ki (nM)
Numeric only. Scale: nM

Give Ki for this entry on DOR-eGFP (delta opioid receptor-eGFP) (Mus musculus): CCN(CC)C(=O)c1ccc(C(=C2CCNCC2)c2ccccc2)cc1 [ARM390]
2.3

----------
molecular target: DOR-eGFP (delta opioid receptor-eGFP) (Mus musculus, UniProt P32300); construct: gene Oprd1; Full-length mouse delta receptor with C-terminal eGFP, knocked in at the native gene (exon 3, 5' of the stop codon); whole brain membranes of knock-in mice; experiment: […]GTPgammaS binding, whole brain membranes; format: biochemical; conditions: agonist; 30 µM GDP, 0.1 nM [35S]GTPgammaS, 3 mM MgCl2, 100 mM NaCl, pH 7.4, 1 h, 25 °C; read-out: G protein coupling ([^35S]GTPγS binding) / EC50 (nM) / Striatum / E1/2 (min)
Sequence (P32300 whole entry): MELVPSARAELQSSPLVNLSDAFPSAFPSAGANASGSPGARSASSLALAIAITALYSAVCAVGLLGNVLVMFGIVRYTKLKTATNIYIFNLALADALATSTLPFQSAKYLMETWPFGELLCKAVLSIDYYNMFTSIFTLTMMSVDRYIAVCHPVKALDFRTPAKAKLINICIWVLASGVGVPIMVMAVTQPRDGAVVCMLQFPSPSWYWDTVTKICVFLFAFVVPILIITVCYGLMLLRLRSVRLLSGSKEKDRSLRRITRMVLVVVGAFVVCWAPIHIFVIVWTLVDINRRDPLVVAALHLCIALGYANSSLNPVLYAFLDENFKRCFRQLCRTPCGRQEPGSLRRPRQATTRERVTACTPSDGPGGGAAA
Measurement Type: EC50 (nM)
Numeric only. Scale: nM

Return EC50 (reported value) for this compound: CCN(CC)C(=O)c1ccc(C(=C2CCNCC2)c2ccccc2)cc1
169

Provenance of the data: paper PMC2672171
